Multiple publications report IC50 for 3-oxo-5-alpha-steroid 4-dehydrogenase 2 (Homo sapiens, UniProt P31213); what follows is a combined list.

Exercise: Hi! What's the reported IC50 for C[C@]12CC[C@@H]3c4ccc(O)cc4CC[C@H]3[C@@H]1CCC(=O)N2 on 3-oxo-5-alpha-steroid 4-dehydrogenase 2 (Homo sapiens, UniProt P31213)?
Solution: > 1000 nM

Exercise: Please state recorded IC50 (tested on 3-oxo-5-alpha-steroid 4-dehydrogenase 2 (Homo sapiens, UniProt P31213)) of C[C@]12CCC(=O)C=C1NCC1C2CC[C@@]2(C)C1CC[C@@H]2C(=O)NC(c1ccccc1)(c1ccccc1)c1ccccc1 (stereo partly drawn)
Sequence (P31213 whole entry): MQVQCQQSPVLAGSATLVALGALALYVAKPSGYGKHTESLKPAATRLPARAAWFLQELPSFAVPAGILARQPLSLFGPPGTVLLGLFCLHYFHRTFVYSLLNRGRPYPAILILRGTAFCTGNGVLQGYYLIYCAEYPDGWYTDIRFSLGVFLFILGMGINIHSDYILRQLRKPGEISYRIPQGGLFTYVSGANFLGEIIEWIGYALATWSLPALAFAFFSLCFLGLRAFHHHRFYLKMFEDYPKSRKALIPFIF
Solution: < 0.1 nM

Exercise: Hi! What's the reported IC50 for CC(C)(C)c1ccc(C2(NC(=O)[C@H]3CCC4C5CNC6=CC(=O)CC[C@]6(C)C5CC[C@@]43C)CCCCC2)cc1 (stereo partly drawn) on 3-oxo-5-alpha-steroid 4-dehydrogenase 2 (Homo sapiens, UniProt P31213)?
Solution: < 0.1 nM

Exercise: Lab note: need IC50 with 3-oxo-5-alpha-steroid 4-dehydrogenase 2 (Homo sapiens, UniProt P31213) for entry CC(C)c1cc(C(C)C)c(C(=O)[C@H]2CC[C@H]3[C@@H]4CNC5=CC(=O)CC[C@]5(C)[C@H]4CC[C@]23C)c(C(C)C)c1 , please look it up.
Solution: 0.5 nM

Exercise: // fetch 3-oxo-5-alpha-steroid 4-dehydrogenase 2 (Homo sapiens, UniProt P31213) IC50 for CC(C)CCCC(C)C1CCC2C3C(CC[C@]12C)[C@@]1(C)CCC(=O)NC1=C[C@@H]3c1ccccc1 (stereo partly drawn)
Solution: 1340 nM

Exercise: Notebook: pull reported IC50 for 3-oxo-5-alpha-steroid 4-dehydrogenase 2 (Homo sapiens, UniProt P31213), entry CC(C)(C)NC(=O)[C@H]1CCC2C3CN=C4C=C(O)C5CC5[C@]4(C)C3CC[C@@]21C (stereo partly drawn)
Solution: 4.4 nM

Exercise: Could you share what IC50 was measured for C[C@]12CC[C@H]3[C@@H](CNC4=C(Cl)C(=O)CC[C@@]43C)[C@@H]1CC[C@@H]2C(=O)Nc1cc(C(F)(F)F)ccc1C(F)(F)F (stereo in doubt; 27) , tested on 3-oxo-5-alpha-steroid 4-dehydrogenase 2 (Homo sapiens, UniProt P31213)?
Solution: < 0.1 nM

Exercise: Short answer please: IC50, 3-oxo-5-alpha-steroid 4-dehydrogenase 2 (Homo sapiens, UniProt P31213), entry CN1C(=O)CC[C@]2(C)c3ccc(CC(N)=O)cc3CC[C@@H]12
Solution: > 10000 nM

Exercise: Notebook entry, 3-oxo-5-alpha-steroid 4-dehydrogenase 2 (Homo sapiens, UniProt P31213) assay: IC50 of CC(C)(C)c1ccc(-c2ccccc2)cc1NC(=O)[C@H]1CCC2C3CNC4=CC(=O)CC[C@]4(C)C3CC[C@@]21C (stereo partly drawn) = ?
Solution: < 0.1 nM

Exercise: Under 3-oxo-5-alpha-steroid 4-dehydrogenase 2 (Homo sapiens, UniProt P31213): IC50 value of C[C@]12CCC(=O)C=C1NCC1C2CC[C@@]2(C)C1CC[C@@H]2C(=O)c1c(F)cccc1F (stereo partly drawn) ?
Solution: < 0.1 nM

Exercise: IC50 of CC1=C2NCC3C(CC[C@@]4(C)C3CC[C@@H]4C(=O)NC34CC5CC(CC(C5)C3)C4)[C@@]2(C)CCC1=O (stereo partly drawn) on 3-oxo-5-alpha-steroid 4-dehydrogenase 2 (Homo sapiens, UniProt P31213)?
Solution: < 0.1 nM

Exercise: # get_value(readout= IC50, system= 3-oxo-5-alpha-steroid 4-dehydrogenase 2 (Homo sapiens, UniProt P31213)) for CCN(CC)C(=O)[C@H]1CCC2C3CNC4=C(C)C(=O)C=C[C@]4(C)C3CC[C@@]21C (stereo partly drawn)
Solution: 8.1 nM

Exercise: Field: IC50 (3-oxo-5-alpha-steroid 4-dehydrogenase 2 (Homo sapiens, UniProt P31213)). Entry: CC(C)N(C(=O)[C@@H]1C[C@@H]2CCC3C4CCC(=O)N(C)[C@@]4(C)CCC3[C@@]2(C)C1)C(C)C (stereo partly drawn)
Solution: > 100000 nM

Exercise: Missing value: IC50, 3-oxo-5-alpha-steroid 4-dehydrogenase 2 (Homo sapiens, UniProt P31213), entry C[C@]12CC[C@H]3[C@@H](CNC4=CC(=O)CC[C@@]43C)[C@@H]1CC[C@@H]2C(=O)OC1[C@H]2C[C@@H]3C[C@@H](C[C@H]1C3)C2 (stereo partly drawn) . Fill in?
Solution: < 0.1 nM

Exercise: Notebook entry, 3-oxo-5-alpha-steroid 4-dehydrogenase 2 (Homo sapiens, UniProt P31213) assay: IC50 of C[C@]12CC[C@H]3[C@@H](CNC4=CC(=O)CC[C@@]43C)[C@@H]1CC[C@@H]2C(=O)NC(C1CCCCC1)C1CCCCC1 = ?
Solution: 0.4 nM

Exercise: Value wanted: IC50 (3-oxo-5-alpha-steroid 4-dehydrogenase 2 (Homo sapiens, UniProt P31213)) of entry CC(C)(C)c1ccc(C2(NC(=O)[C@H]3CCC4C5CNC6=CC(=O)CC[C@]6(C)C5CC[C@@]43C)CCCCCC2)cc1 (stereo partly drawn)
Solution: < 0.1 nM

Exercise: Provide value of IC50 for this record tested with 3-oxo-5-alpha-steroid 4-dehydrogenase 2 (Homo sapiens, UniProt P31213): CCN(CC)C(=O)[C@H]1CC[C@H]2[C@@H]3CC[C@H]4N(C)C(=O)CC[C@]4(C)[C@H]3CC[C@]12C
Solution: 0.23 nM

Exercise: # get_value(readout= IC50, system= 3-oxo-5-alpha-steroid 4-dehydrogenase 2 (Homo sapiens, UniProt P31213)) for O=C(O)Cc1ccc(C(=O)c2ccc(Oc3ccc(Br)cc3)cc2)cc1
Solution: 5 nM
